- tgt: T1, NHERF1 PDZ2 domain (133-300) (human, UniProt O14745 133-300)
- T1 sequence (looked up): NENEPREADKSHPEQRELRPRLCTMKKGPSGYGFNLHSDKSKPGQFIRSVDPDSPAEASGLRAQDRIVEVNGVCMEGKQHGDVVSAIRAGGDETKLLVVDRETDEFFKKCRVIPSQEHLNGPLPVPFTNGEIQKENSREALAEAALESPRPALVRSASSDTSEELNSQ
- test protocol: fluorescence polarisation
pKd: −log10 of the molar value. Ends that are not written are not given here. * marks the point of attachment. FITC = O=C1OC2(c3ccc(O)cc3Oc3cc(O)ccc32)c2ccc(NC(=S)*)cc21
metric: pKd

[[record]]
binder = "{FITC}-LQEEWETVM [FITC-labeled carboxy-terminal PTHR 9-residue peptide]"
result = 6.40

